EXPERIMENT: Selectivity index, ratio of IC50 for rat L6 cells to IC50 for bloodstream forms of Trypanosoma brucei rhodesiense STIB 900
Assay type: toxicity, cell-based
STATED CONDITIONS: read-out: Ratio IC50
MEASURED PARAMETER: selectivity ratio

1) COc1ccc(OC2=CC(=O)c3cc4ccccc4cc3C2=O)cc1 : 0.63
2) CC(=O)Nc1ccc(OC2=CC(=O)c3cccc(O)c3C2=O)cc1 : 0.24
3) COc1ccc(OC2=CC(=O)c3cccc(OC)c3C2=O)cc1 : 0.18
4) Nc1nc(N)nc(Nc2ccc([As]3SCC(CO)S3)cc2)n1 (stereo not given) [MELARSOPROL] : 1830
5) COc1cccc2c1C(=O)C(Oc1ccc(F)cc1)=CC2=O : 0.16

Values were extracted from ChEMBL document CHEMBL3603776.
